# Target: T1, human G-CSF receptor (human, UniProt Q99062 25-836)
# T1 sequence (looked up): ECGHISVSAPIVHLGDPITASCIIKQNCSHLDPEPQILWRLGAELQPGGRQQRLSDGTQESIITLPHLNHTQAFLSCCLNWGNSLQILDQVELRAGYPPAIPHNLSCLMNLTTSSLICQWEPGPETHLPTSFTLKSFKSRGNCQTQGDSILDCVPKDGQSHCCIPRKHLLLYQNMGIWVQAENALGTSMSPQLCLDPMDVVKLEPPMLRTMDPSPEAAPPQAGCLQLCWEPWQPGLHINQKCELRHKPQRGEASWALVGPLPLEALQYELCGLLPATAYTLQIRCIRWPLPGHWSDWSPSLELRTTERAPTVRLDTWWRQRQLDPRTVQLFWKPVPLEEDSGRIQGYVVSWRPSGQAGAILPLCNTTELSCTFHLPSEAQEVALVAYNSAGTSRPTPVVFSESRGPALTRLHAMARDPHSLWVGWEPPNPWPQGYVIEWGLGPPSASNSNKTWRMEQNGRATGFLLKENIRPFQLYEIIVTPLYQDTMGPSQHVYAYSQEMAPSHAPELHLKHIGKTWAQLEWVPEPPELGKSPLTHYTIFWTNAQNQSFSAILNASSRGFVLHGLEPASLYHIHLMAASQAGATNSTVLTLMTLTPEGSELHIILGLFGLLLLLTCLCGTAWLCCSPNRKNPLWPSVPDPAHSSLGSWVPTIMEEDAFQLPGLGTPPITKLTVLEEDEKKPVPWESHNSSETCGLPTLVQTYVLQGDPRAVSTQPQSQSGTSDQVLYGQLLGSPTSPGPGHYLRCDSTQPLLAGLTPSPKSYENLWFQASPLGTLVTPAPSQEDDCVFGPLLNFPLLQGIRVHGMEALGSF
# Procedure Details: cell-based or functional assay
Measurement Kind: EC50 (% of hG-CSF) non-conjugated

Here's what some known entries look like.
| Binder | EC50 (% of hG-CSF) non-conjugated |
| --- | --- |
| G-CSF variant K16/34/40R S155K, non-conjugated (ligand) TPLGPASSLPQSFLLRCLEQVRKIQGDGAALQERLCATYRLCHPEELVLLGHSLGIPWAPLSSCPSQALQLAGCLSQLHSGLFLYQGLLQALEGISPELGPTLDTLQLDVADFATTIWQQMEELGMAPALQPTQGAMPAFASAFQRRAGGVLVAKHLQSFLEVSYRVLRHLAQP | 20 % of hG-CSF |
| G-CSF variant K16/34/40R Q90K S159K, non-conjugated (ligand) TPLGPASSLPQSFLLRCLEQVRKIQGDGAALQERLCATYRLCHPEELVLLGHSLGIPWAPLSSCPSQALQLAGCLSQLHSGLFLYQGLLKALEGISPELGPTLDTLQLDVADFATTIWQQMEELGMAPALQPTQGAMPAFASAFQRRAGGVLVASHLQKFLEVSYRVLRHLAQP | 45 % of hG-CSF |

// switching to the query binder
Lookup: Output EC50 (% of hG-CSF) non-conjugated of G-CSF variant K16/34/40R Q90K T105K, non-conjugated (ligand) TPLGPASSLPQSFLLRCLEQVRKIQGDGAALQERLCATYRLCHPEELVLLGHSLGIPWAPLSSCPSQALQLAGCLSQLHSGLFLYQGLLKALEGISPELGPTLDKLQLDVADFATTIWQQMEELGMAPALQPTQGAMPAFASAFQRRAGGVLVASHLQSFLEVSYRVLRHLAQP
Found: 40 % of hG-CSF

// data source = patent US20030118612A1
